pIC50: −log10 of the molar value. Structures can show the parent of a compound that is named as a salt.
// bovine cerebral TPK1 (Bos taurus, UniProt A0A3Q1MT31) pIC50 records
Recorded Metric: pIC50

Recorded results for 8 molecules are shown here.
{"columns": ["Molecule", "pIC50"],
 "data": [
  ["O=c1cc(-c2ccncc2)nc(CCCc2ccccc2)[nH]1", 6.30],
  ["CCN(CC)c1nc(-c2ccncc2)cc(=O)[nH]1", 5.96],
  ["O=c1cc(-c2ccncc2)nc(Cc2cccc(-c3ccccc3)c2)[nH]1", 6.11],
  ["CCCN(CCC)c1nc(-c2ccncc2)cc(=O)[nH]1", 6.02],
  ["Cc1ccccc1-c1nc(-c2ccncc2)cc(=O)[nH]1", 5.40],
  ["O=c1cc(-c2ccncc2)nc(N2CCCC2)[nH]1", 5.59],
  ["CC(C)CN(C)c1nc(-c2ccncc2)cc(=O)[nH]1", 5.96],
  ["O=c1cc(-c2ccncc2)nc(Cc2ccc(Cl)cc2)[nH]1", 5.26]
]}

(I) O=c1cc(-c2ccncc2)nc(-c2ccc([N+](=O)[O-])cc2)[nH]1
(II) O=c1cc(-c2ccncc2)nc(N2CCCCC2)[nH]1
Ask: Compare the recorded pIC50 of I and II ; state which is larger. Could you answer with the label of the item you picked?
Reply: II

(P) Nc1nc(-c2ccncc2)cc(=O)[nH]1
(Q) O=c1cc(-c2ccncc2)nc(NCCCO)[nH]1
(R) CN(C)Cc1cccc(-c2nc(-c3ccncc3)cc(=O)[nH]2)c1 [Example 27, dihydrochloride]
Ask: Rank the 3 molecules: largest pIC50 first, smallest last. Record the ranking as a list of labels in the requested order.
Reply: R, P, Q
(R: 5.48, P: 5.24, Q: 5.00)

(I) O=c1cc(-c2ccncc2)nc(Cc2cccs2)[nH]1
(II) O=c1cc(-c2ccncc2)nc(-c2ccncc2)[nH]1
Ask: I'm curious whether I or II has the smaller pIC50 number. Which is it? Could you answer with the label of the item you picked?
Reply: I
(I: 5.12, II: 5.74)
